Values were extracted from patent US5310757A.

- Tested on: HMG-CoA red.
- procedureDetails: HMG-CoA red. activity "ex vivo" in liver microsomes after chronic intraperitoneal administration to rats
- runConditions: inhibition of HMG-CoA red. activity, 50 mg/kg for 6 days, Control 0
# cutoff 60% applies to % inhibition; >= gives MET, < gives NOT MET

* C[C@H]1C[C@H](OC(=O)C(C)(C)Oc2ccc(C(=O)Cc3ccccc3)cc2)CC(C)(C)C1 (relative stereo) | NOT MET
* C[C@H]1C[C@H](OC(=O)C(C)(C)CCCCOc2ccccc2)CC(C)(C)C1 (relative stereo) | MET
* Cc1ccc(C)c(OCCCC(C)(C)C(=O)O[C@H]2C[C@H](C)CC(C)(C)C2)c1 (relative stereo) | MET
* Cc1ccc(OCCCCC(C)(C)C(=O)O[C@H]2C[C@@H](C)CC(C)(C)C2)c(C)c1 (relative stereo) | MET
* C[C@@H]1C[C@H](OC(=O)C(C)(C)Oc2ccc(C(=O)c3ccc(Cl)cc3)cc2)CC(C)(C)C1 (relative stereo) | NOT MET

Has C[C@H]1C[C@H](OC(=O)C(C)(C)Oc2ccc(C(=O)c3ccc(Cl)cc3)cc2)CC(C)(C)C1 (relative stereo) a recorded % inhibition greater than or equal to 60%?
MET

---

- Tested on: hyperlipidaemia caused by TRITON 1339
- procedureDetails: test for the hyperlipidaemia caused by TRITON 1339
- Type: in vivo
- runConditions: rats, Triton test after oral administration for six days, 0.5 millimol per kilogram; Control 1 ± 0.3, Triton 10 ± 7
For each entry below, report its Triglycerides value.
I'd appreciate it if you included the unit after the number.

Guide cases for Triglycerides, answers given:
- CCC(=O)c1ccc(OC(C)(C)C(=O)O[C@H]2C[C@H](C)CC(C)(C)C2)cc1 (relative stereo) [Example 9]: 1.6 ± 0.3 mmol/L
- CC(=O)c1ccc(OC(C)(C)C(=O)O[C@H]2C[C@H](C)CC(C)(C)C2)c(Cl)c1 (relative stereo) [Example 11]: 1.0 ± 0.1 mmol/L
- CC(=O)c1cccc(OC(C)(C)C(=O)O[C@H]2C[C@@H](C)CC(C)(C)C2)c1 (relative stereo) [Example 14]: 6.0 ± 3.0 mmol/L
- Cc1ccc(C)c(OCCCC(C)(C)C(=O)O[C@H]2C[C@H](C)CC(C)(C)C2)c1 (relative stereo) [Example 6]: 1.7 ± 0.3 mmol/L

Below are 5 molecules. Give each one its Triglycerides.
1. C[C@H]1C[C@H](OC(=O)C(C)(C)Oc2ccc(CCNC(=O)c3ccc(Cl)cc3)cc2)CC(C)(C)C1 (relative stereo) [Example 3]
2. CC(=O)c1ccc(OC(C)(C)C(=O)O[C@@H]2C[C@@H](C)CC(C)(C)C2)cc1 (relative stereo) [Example 15]
3. Cc1ccc(C)c(OCCCC(C)(C)C(=O)O[C@H]2C[C@@H](C)CC(C)(C)C2)c1 (relative stereo) [Example 5]
4. C[C@@H]1C[C@H](OC(=O)C(C)(C)Oc2ccc(CCNC(=O)c3ccc(Cl)cc3)cc2)CC(C)(C)C1 (relative stereo) [Example 4]
5. C[C@H]1C[C@H](OC(=O)C(C)(C)Oc2ccc(C(=O)c3ccc(Cl)cc3)cc2)CC(C)(C)C1 (relative stereo) [Example 1]

["1.2 ± 0.4 mmol/L", "1.7 ± 1.2 mmol/L", "2.0 ± 0.3 mmol/L", "2.5 ± 0.5 mmol/L", "0.8 ± 0.1 mmol/L"]

Below are 3 molecules. Give each one its Triglycerides.
1. C[C@H]1C[C@H](OC(=O)C(C)(C)Oc2ccc(-c3ccccc3)cc2)CC(C)(C)C1 (relative stereo) [Example 7]
2. C[C@@H]1C[C@H](OC(=O)C(C)(C)Oc2ccc(-c3ccccc3)cc2)CC(C)(C)C1 (relative stereo) [Example 8]
3. C[C@@H]1C[C@H](OC(=O)C(C)(C)Oc2ccc(C(=O)c3ccc(Cl)cc3)cc2)CC(C)(C)C1 (relative stereo) [Example 2]

1: 1.1 ± 0.5 mmol/L; 2: 6.0 ± 4 mmol/L; 3: 0.5 ± 0.15 mmol/L

---

- System: HMG-CoA red.
- procedureDetails: HMG-CoA red. activity "ex vivo" in liver microsomes after chronic intraperitoneal administration to rats
- Design: unit not given here
- runConditions: 50 mg/kg for 6 days, Control 17
For each entry below, report its Mevalonate formed value.
Give bare numbers.

Guide cases for Mevalonate formed, answers given:
- CC(C)OC(=O)C(C)(C)Oc1ccc(C(=O)c2ccc(Cl)cc2)cc1 [Fenofibrate, reference compound]: 4.16
- C[C@H]1C[C@H](OC(=O)C(C)(C)CCCCOc2ccccc2)CC(C)(C)C1 (relative stereo): 5.2
- C[C@@H]1C[C@H](OC(=O)C(C)(C)Oc2ccc(C(=O)c3ccc(Cl)cc3)cc2)CC(C)(C)C1 (relative stereo): 7.3

Entry C[C@H]1C[C@H](OC(=O)C(C)(C)Oc2ccc(C(=O)Cc3ccccc3)cc2)CC(C)(C)C1 (relative stereo) under HMG-CoA red. had Mevalonate formed of 8.66
